- system: DRB01*11:01
- conditionNotes: chains peptide; modification not given
measuredQuantity: IC50 (nM)
# output: bare number, implied unit nM

input: Suppose we examine the binder GAVILRGHLRIAGHHLGR [SEQ ID NO 312] ; what IC50 value has been reported?
output: 383
